Data provenance is PubChem BioAssay AID1918939.

Test system: 653999-131-R-J2-PDC complex spheroid viability
Assay: Anticancer human tumor 653999-131-R-J2-PDC patient-derived lung adenocarcinoma cell line growth inhibition
Details: second compound 10 µM; first compound 1 µM; stronger effect = lower value
Consider the cut-off 60%. If the recorded viability, T/C is strictly smaller, the label is TRUE; if not, the label is FALSE.

O=C(c1cc(Cc2n[nH]c(=O)c3ccccc23)ccc1F)N1CCN(C(=O)C2CC2)CC1 + NC1CC1c1ccc(-c2cccc(O)c2)cc1 : FALSE

Asked: I wonder whether O=C(C=Cn1cnc(-c2cc(C(F)(F)F)cc(C(F)(F)F)c2)n1)NNc1cnccn1 + NC1CC1c1ccc(-c2cccc(O)c2)cc1 has viability, T/C below 60%. Can you tell?
Given back: TRUE

Asked: Decide: viability, T/C of CC1COCCN1c1cc(C2(S(C)(=N)=O)CC2)nc(-c2ccnc3[nH]ccc23)n1 (configuration not stated) + NC1CC1c1ccc(-c2cccc(O)c2)cc1 strictly below 60%?
Given back: FALSE

Asked: Consider CC1COCCN1c1cc(C2(S(C)(=N)=O)CC2)nc(-c2ccnc3[nH]ccc23)n1 (configuration not stated) + NC1CCC(NC2CC2c2ccccc2)CC1 . Does its viability, T/C lie strictly below 60%?
Given back: TRUE

Asked: Is it true that viability, T/C reported for Nc1ncn(C2CC(O)C(CO)O2)c(=O)n1 (configuration not stated) + NC1CC1c1ccc(-c2cccc(O)c2)cc1 is less than 60%?
Given back: FALSE

Asked: Criterion: viability, T/C strictly below 60%. Is it met by O=C(C=Cn1cnc(-c2cc(C(F)(F)F)cc(C(F)(F)F)c2)n1)NNc1cnccn1 + NC1CCC(NC2CC2c2ccccc2)CC1 ?
Given back: TRUE

Asked: Hi there! Is viability, T/C for Nc1ncn(C2CC(O)C(CO)O2)c(=O)n1 (configuration not stated) + NC1CCC(NC2CC2c2ccccc2)CC1 below 60%, do you know?
Given back: FALSE

---

Test system: 653999-131-R-J2-PDC complex spheroid viability
Assay: Anticancer human tumor 653999-131-R-J2-PDC cell line growth inhibition;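 also: spheroids exposed to agents for seven days before readout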
Settings: second compound 0.316 µM; first compound 0.03 µM; stronger effect = lower value
Note to self: viability, T/C under 60% means yes, ties and anything higher get no.

CCN(c1cc(-c2ccc(CN3CCOCC3)cc2)cc(C(=O)NCc2c(C)cc(C)[nH]c2=O)c1C)C1CCOCC1 + NC1CC1c1ccc(-c2cccc(O)c2)cc1 : no
NS(=O)(=O)OCC1CC(n2ccc3c(NC4CCc5ccccc54)ncnc32)CC1O (stereo unspecified) + NC1CC1c1ccc(-c2cccc(O)c2)cc1 : no
CCN(c1cc(-c2ccc(CN3CCOCC3)cc2)cc(C(=O)NCc2c(C)cc(C)[nH]c2=O)c1C)C1CCOCC1 + NC1CCC(NC2CC2c2ccccc2)CC1 : no

Asked: In the record for NS(=O)(=O)OCC1CC(n2ccc3c(NC4CCc5ccccc54)ncnc32)CC1O (stereo unspecified) + NC1CCC(NC2CC2c2ccccc2)CC1 , is viability, T/C less than 60%?
Given back: no

Asked: Report whether reported viability, T/C is lower than 60% (strictly) for O=C(C=Cc1cccc(S(=O)(=O)Nc2ccccc2)c1)NO + NC1CC1c1ccc(-c2cccc(O)c2)cc1
Given back: no

Asked: Please let me know if Nc1ccn(C2OC(CO)C(O)C2(F)F)c(=O)n1 (stereo unspecified) + NC1CCC(NC2CC2c2ccccc2)CC1 shows viability, T/C below 60%.
Given back: yes

Asked: I wonder whether COc1cc(C2c3cc4c(cc3C(OC3OC5COC(C)OC5C(O)C3O)C3COC(=O)C23)OCO4)cc(OC)c1O (stereo unspecified) + NC1CCC(NC2CC2c2ccccc2)CC1 has viability, T/C below 60%. Can you tell?
Given back: no

Asked: Consider COc1cc(C2c3cc4c(cc3C(OC3OC5COC(C)OC5C(O)C3O)C3COC(=O)C23)OCO4)cc(OC)c1O (stereo unspecified) + NC1CC1c1ccc(-c2cccc(O)c2)cc1 . Does its viability, T/C lie strictly below 60%?
Given back: no

Asked: Lab log: compare recorded viability, T/C with 60%; is it strictly lower for Nc1ccn(C2OC(CO)C(O)C2(F)F)c(=O)n1 (stereo unspecified) + NC1CC1c1ccc(-c2cccc(O)c2)cc1 ?
Given back: yes

Asked: Quick check: does CCc1c2c(nc3ccc(O)cc13)-c1cc3c(c(=O)n1C2)COC(=O)[C@]3(O)CC + NC1CC1c1ccc(-c2cccc(O)c2)cc1 have viability, T/C under 60%?
Given back: yes

Asked: Is the reported viability, T/C for CCc1c2c(nc3ccc(O)cc13)-c1cc3c(c(=O)n1C2)COC(=O)[C@]3(O)CC + NC1CCC(NC2CC2c2ccccc2)CC1 strictly below 60%?
Given back: yes

Asked: Find out if reported viability, T/C for O=C(C=Cc1cccc(S(=O)(=O)Nc2ccccc2)c1)NO + NC1CCC(NC2CC2c2ccccc2)CC1 is less than 60%
Given back: no

Asked: Is viability, T/C strictly under 60% for the entry Nc1ccccc1NC(=O)c1ccc(CNC(=O)OCc2cccnc2)cc1 + NC1CC1c1ccc(-c2cccc(O)c2)cc1 ?
Given back: no

Asked: Identify whether the molecule Nc1ncn(C2CC(O)C(CO)S2)c(=O)n1 (stereo unspecified) + NC1CCC(NC2CC2c2ccccc2)CC1 records viability, T/C below 60%.
Given back: no

Asked: Quick check: viability, T/C of Nc1ncn(C2CC(O)C(CO)S2)c(=O)n1 (stereo unspecified) + NC1CC1c1ccc(-c2cccc(O)c2)cc1 under 60%?
Given back: no

---

Answer each item with its documented viability, T/C.
Test system: 653999-131-R-J2-PDC complex spheroid viability
Test: Anticancer human tumor 653999-131-R-J2-PDC cell line growth inhibition;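 also: spheroids exposed to agents for seven days before readout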
Conditions: second compound 0.1 µM; first compound 0.949 µM; stronger effect = lower value
Answers are plain numbers, in %.

NS(=O)(=O)OCC1CC(n2ccc3c(NC4CCc5ccccc54)ncnc32)CC1O (configuration not stated) + NC1CC1c1ccc(-c2cccc(O)c2)cc1 : 64.9
CCN(c1cc(-c2ccc(CN3CCOCC3)cc2)cc(C(=O)NCc2c(C)cc(C)[nH]c2=O)c1C)C1CCOCC1 + NC1CCC(NC2CC2c2ccccc2)CC1 : 80.8

For each entry beneath this line, provide reported viability, T/C.
1. COc1cc(C2c3cc4c(cc3C(OC3OC5COC(C)OC5C(O)C3O)C3COC(=O)C23)OCO4)cc(OC)c1O (configuration not stated) + NC1CCC(NC2CC2c2ccccc2)CC1
2. CCN(c1cc(-c2ccc(CN3CCOCC3)cc2)cc(C(=O)NCc2c(C)cc(C)[nH]c2=O)c1C)C1CCOCC1 + NC1CC1c1ccc(-c2cccc(O)c2)cc1
3. COc1cc(C2c3cc4c(cc3C(OC3OC5COC(C)OC5C(O)C3O)C3COC(=O)C23)OCO4)cc(OC)c1O (configuration not stated) + NC1CC1c1ccc(-c2cccc(O)c2)cc1
4. Nc1ccccc1NC(=O)c1ccc(CNC(=O)OCc2cccnc2)cc1 + NC1CCC(NC2CC2c2ccccc2)CC1
5. NS(=O)(=O)OCC1CC(n2ccc3c(NC4CCc5ccccc54)ncnc32)CC1O (configuration not stated) + NC1CCC(NC2CC2c2ccccc2)CC1

Given back:
37.6
94.1
37
35.8
54.7

---

System: 653999-131-R-J2-PDC complex spheroid viability
Assay: Anticancer human tumor 653999-131-R-J2-PDC cell line growth inhibition;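 also: spheroids exposed to agents for seven days before readout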
Conditions: second compound 3.16 µM; first compound 10 µM; stronger effect = lower value
value type: viability, T/C (%)
Answers are plain numbers, in %.

# example entries with known answers
CC1COCCN1c1cc(C2(S(C)(=N)=O)CC2)nc(-c2ccnc3[nH]ccc23)n1 (stereo unspecified) + NC1CCC(NC2CC2c2ccccc2)CC1 : 32.3
CC1COCCN1c1cc(C2(S(C)(=N)=O)CC2)nc(-c2ccnc3[nH]ccc23)n1 (stereo unspecified) + NC1CC1c1ccc(-c2cccc(O)c2)cc1 : 47.1
O=C(c1cc(Cc2n[nH]c(=O)c3ccccc23)ccc1F)N1CCN(C(=O)C2CC2)CC1 + NC1CCC(NC2CC2c2ccccc2)CC1 : 58.5

Return reported viability, T/C values for all items listed beneath this line.
1. O=C(c1cc(Cc2n[nH]c(=O)c3ccccc23)ccc1F)N1CCN(C(=O)C2CC2)CC1 + NC1CC1c1ccc(-c2cccc(O)c2)cc1
2. CC(C)c1c(-c2ccccc2)nc2c(C#N)c[nH]n2c1=O + NC1CCC(NC2CC2c2ccccc2)CC1
3. CC1(C)CCC(CN2CCN(c3ccc(C(=O)NS(=O)(=O)c4ccc(NCC5CCOCC5)c([N+](=O)[O-])c4)c(Oc4cnc5[nH]ccc5c4)c3)CC2)=C(c2ccc(Cl)cc2)C1 + NC1CCC(NC2CC2c2ccccc2)CC1

Given back:
64.6
80
43.2

---

Tested on: 653999-131-R-J2-PDC complex spheroid viability
Experiment: Anticancer human tumor 653999-131-R-J2-PDC cell line growth inhibition;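 also: spheroids exposed to agents for seven days before readout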
Conditions: compound alone; run of 01/18/2022
Excerpt: Multicellular complex tumor spheroid response to LSD1 Inhibitor Iadademstat in combination with a variety of drugs and investigational agents in selected tumor cell lines The current study was undertaken to assess response to LSD1 inhibitors in combination with standard-of-care drugs and investigational agents in solid tumor complex spheroid models as well as in the K-562 leukemia. […] Compounds. […] If the clinical Cmax for an agent had not been determined, the highest concentration tested was 10 microM. […]
pIC50: −log10 of the molar value.
value type: pIC50

In plain terms, NC1CCC(NC2CC2c2ccccc2)CC1 (stereo unspecified) has a documented pIC50 of < 5.00
